- Tested on: NCI-H1648
- TEST_METHOD_NOTES: relative viability (nuclei count vs DMSO), 5 days (fraction); higher = more cells survive
- DETAILS: first compound 0.04 µM
REPORTED_PROPERTY: relative viability
Numbers only.

Tell me the measured relative viability of Clc1ccc(Nc2nnc(Cc3ccncc3)c3ccccc23)cc1 [Vatalanib] + Nc1ncn([C@H]2C[C@H](O)[C@@H](CO)O2)c(=O)n1 [Decitabine] (partner 2 µM) , please. 0.497

Go through the list and state relative viability for each entry.
1. Clc1ccc(Nc2nnc(Cc3ccncc3)c3ccccc23)cc1 [Vatalanib] + COc1cccc2cc(-c3nc([C@H]4CC[C@H](C(=O)O)CC4)n4ncnc(N)c34)[nH]c12 [OSI-027] (partner 0.5 µM)
2. COc1cc(N2CCC(C(N)=O)CC2)ccc1Nc1nc(N)c(Cl)c(Nc2ccccc2S(=O)(=O)C(C)C)n1 [HG-5-88-01] + CC(=O)c1c(C)c2cnc(Nc3ccc(N4CCNCC4)cn3)nc2n(C2CCCC2)c1=O [Palbociclib] (partner 0.5 µM)
3. C[C@@H]1CN(CC(=O)Nc2ccc3c(c2)Cc2cccc(-c4cc(=O)cc(N5CCOCC5)o4)c2S3)C[C@H](C)O1 + CC(=O)Nc1cccc(-n2c(=O)n(C3CC3)c(=O)c3c(Nc4ccc(I)cc4F)n(C)c(=O)c(C)c32)c1 [Trametinib] (partner 0.02 µM)
4. Clc1ccc(Nc2nnc(Cc3ccncc3)c3ccccc23)cc1 [Vatalanib] + O=C(CCCCCCC(=O)Nc1ccccc1)NO [Vorinostat] (partner 1 µM)

1: 0.258; 2: 0.291; 3: 0.484; 4: 0.32

Source listed as the supplement of paper PMC10307832.
